- experiment.notes: AUC (0 to infinity) in ICR mouse at 10 mg/kg, po measured upto 24 hrs by LC-MS/MS analysis
- Assay type: ADME, organism-based
- setup.conditions: in vivo

compound | AUC(0-inf) / ng·h/mL
CC(=O)Nc1ccc2c(c1)[C@]13CCCC[C@@H]1[C@H](C2)N(C)CC3 | 1220
CN1CC[C@@]23CCCC[C@@H]2[C@@H]1Cc1ccc(N)cc13 | 2720
COc1ccc2c(c1)[C@]13CCCC[C@@H]1[C@H](C2)N(C)CC3 [DEXTROMETHORPHAN] | 207

---

- tested.on: Mu-type opioid receptor (Homo sapiens, UniProt P35372)
- Sequence (P35372 whole entry): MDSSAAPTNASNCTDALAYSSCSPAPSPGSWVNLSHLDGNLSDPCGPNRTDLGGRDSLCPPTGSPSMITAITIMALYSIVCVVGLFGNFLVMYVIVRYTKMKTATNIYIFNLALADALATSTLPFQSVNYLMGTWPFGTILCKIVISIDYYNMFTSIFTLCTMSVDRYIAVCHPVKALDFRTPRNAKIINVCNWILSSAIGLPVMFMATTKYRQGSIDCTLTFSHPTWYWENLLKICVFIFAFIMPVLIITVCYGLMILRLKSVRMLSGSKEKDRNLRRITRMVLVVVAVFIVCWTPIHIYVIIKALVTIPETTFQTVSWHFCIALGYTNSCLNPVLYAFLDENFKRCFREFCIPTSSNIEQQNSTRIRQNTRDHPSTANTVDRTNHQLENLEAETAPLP
- experiment.notes: Agonist activity at human mu-opioid receptor stably expressed in CHO cells assessed as inhibition of forskolin-induced cAMP accumulation at 30 uM preincubated with compound for 10 mins followed by forskolin induction and measured after 30 mins by LANCE Ultra cAMP assay relative to control
- Format: functional, cell-based
- setup.conditions: time 40.0 min
Classify as follows. Reported inhibition greater than or equal to 8%: Yes. Reported inhibition below: No.

smiles.repr | discrete.label
COc1ccc2c(c1)[C@]13CCCC[C@@H]1[C@H](C2)NCC3 | Yes
CCN1CC[C@@]23CCCC[C@@H]2[C@@H]1Cc1ccc(O)cc13 | Yes
Cc1ccc2c(c1)[C@]13CCCC[C@@H]1[C@H](C2)NCC3 | Yes
CCOc1ccc2c(c1)[C@]13CCCC[C@@H]1[C@H](C2)N(CC)CC3 | No

Values compiled from ChEMBL document CHEMBL6114989.
